# Test details: self-splicing fitness, log relative to wild type (ln ratio); higher = more splicing; Tetrahymena group I intron in knt gene, E. coli kanamycin selection, DiMSum; sequences stand for … in CUCUCU…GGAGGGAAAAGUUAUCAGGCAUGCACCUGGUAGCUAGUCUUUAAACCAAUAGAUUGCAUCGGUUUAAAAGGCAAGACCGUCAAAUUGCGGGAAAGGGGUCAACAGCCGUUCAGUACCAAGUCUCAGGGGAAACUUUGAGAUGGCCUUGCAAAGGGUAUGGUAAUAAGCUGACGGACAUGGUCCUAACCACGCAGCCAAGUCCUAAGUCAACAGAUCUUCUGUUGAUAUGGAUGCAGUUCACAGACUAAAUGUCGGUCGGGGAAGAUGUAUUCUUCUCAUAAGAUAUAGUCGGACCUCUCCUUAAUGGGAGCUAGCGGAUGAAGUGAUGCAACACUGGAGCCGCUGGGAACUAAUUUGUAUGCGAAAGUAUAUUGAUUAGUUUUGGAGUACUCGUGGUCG;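 note: selection with 25 µg/mL kanamycin versus none on LB agar overnight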
# Condition: 30 °C
In this scheme, each record receives a class according to its self-splicing fitness (ln); the ranges are Low = under -3, Mid = from -3 up to -1, High = -1 and over

*Q* Form: Item = `CUUGAGCAAUAUUACGGUCU` ; Class = ?
*A* Low

*Q* Consider `GACCAGCAAUAUUACGGGCG` . To which self-splicing fitness (ln) class does it belong?
*A* High

*Q* Which of the defined bands does the recorded self-splicing fitness (ln) of `ACAGAGCAAUAUUACGGUAU` sit within?
*A* Low

*Q* Into which category would you place `UACUAGCAAUAUUACGAGUC` ?
*A* Mid

*Q* Pick a category. Item: `UAGCAGCAAUAUUACGCUGG`
*A* Mid

*Q* Categorize the following entry: `CCCAAGCAAUAUUACGUUGG`
*A* Low

*Q* # classify by self-splicing fitness (ln) band: `AGGUAGCAAUAUUACGAUAU`
*A* Mid

*Q* Lab note: sort `AGCAAGCAAUAUUACGGGCG` into the matching self-splicing fitness (ln) band.
*A* High

*Q* Consider `UUCAAGCAAUAUUACGAUUA` . To which self-splicing fitness (ln) class does it belong?
*A* High

*Q* Tag the class for `UGGCAGCAAUAUUACGGUUU`
*A* High

*Q* GET /class?item= `CGUAAGCAAUAUUACGCCCU`
*A* Mid

*Q* Exam item: assign `ACUCAGCAAUAUUACGGUAA` to the correct category.
*A* Mid

*Q* Please let me know in which category the item `UAGCAGCAAUAUUACGACCU` belongs.
*A* High

*Q* For the record `UACCAGCAAUAUUACGACUU` , report the class its self-splicing fitness (ln) corresponds to.
*A* High

*Q* Class? Entry: `CUAUAGCAAUAUUACGUUUU`
*A* Low

*Q* Which class is correct for the following sequence? `UGGGAGCAAUAUUACGAGUA`
*A* Low

*Q* Form field 'band' for `UGCCAGCAAUAUUACGGUCG`
*A* Mid

*Q* Lab log: `AGAAAGCAAUAUUACGCGUU` — assign self-splicing fitness (ln) category
*A* Mid

*Q* Pick a category. Item: `AAAAAGCAAUAUUACGGUAA`
*A* Mid

*Q* Band assignment needed for `UUUGAGCAAUAUUACGGUAA` please.
*A* Mid

*Q* Pick a category. Item: `GUGAAGCAAUAUUACGGUCC`
*A* High

*Q* The entry to classify is `CUUAAGCAAUAUUACGUGUG` ; which class holds it?
*A* Mid

*Q* Given `CGGCAGCAAUAUUACGCUUG` , name the class its self-splicing fitness (ln) places it in.
*A* Mid

*Q* Record `CAGAAGCAAUAUUACGACCA` — which class?
*A* High

*Q* Category lookup for the sequence `UUCUAGCAAUAUUACGGGAG`
*A* Mid

*Q* Classify this sequence: `GAUAAGCAAUAUUACGCUGC`
*A* Mid

*Q* Hey, which category is `UCACAGCAAUAUUACGAGUG` in, do you know?
*A* Mid

*Q* Exam item: assign `UGCUAGCAAUAUUACGCAUC` to the correct category.
*A* Low

*Q* Band for `GUGUAGCAAUAUUACGGGUC` ?
*A* Mid

*Q* Band for the recorded self-splicing fitness (ln) of `AACAAGCAAUAUUACGAUAU` ?
*A* Mid

*Q* Which band does `AGGAAGCAAUAUUACGAAUA` fall in?
*A* Mid

*Q* Bin this entry: `CAGUAGCAAUAUUACGACAU`
*A* Low

*Q* Field: class (self-splicing fitness (ln)) — entry: `GAUGAGCAAUAUUACGUCAC`
*A* Low

*Q* Just checking, what class would you give `CAACAGCAAUAUUACGGACA` here?
*A* Mid

*Q* Hello team, could you let me know which band the following sequence falls into: `GGAUAGCAAUAUUACGGUAU`
*A* Mid

*Q* Which self-splicing fitness (ln) band matches `ACCGAGCAAUAUUACGCGCA` ?
*A* Mid

*Q* Exam item: assign `CAUAAGCAAUAUUACGGGAU` to the correct category.
*A* Low

*Q* The entry to classify is `CCUAAGCAAUAUUACGGACG` ; which class holds it?
*A* Mid

*Q* Exercise: read the entry `CCAAAGCAAUAUUACGUGCA` and state which class it falls under.
*A* Mid

*Q* Sort into band: `UGGUAGCAAUAUUACGUCGA`
*A* High

*Q* Lab note: which band did `ACCCAGCAAUAUUACGAGUA` land in?
*A* Mid

*Q* Which of the defined bands does the recorded self-splicing fitness (ln) of `AAUCAGCAAUAUUACGUGUA` sit within?
*A* High

*Q* Returns: class label. Input: `UAAGAGCAAUAUUACGCCAU`
*A* Mid

*Q* Exercise: read the entry `GAUAAGCAAUAUUACGGAGU` and state which class it falls under.
*A* Mid

*Q* Sort into band: `UGUGAGCAAUAUUACGUAAG`
*A* Mid

*Q* Which class does `AAGUAGCAAUAUUACGCCAC` fall in?
*A* Low

*Q* Please classify: `CCACAGCAAUAUUACGGGGU`
*A* Low

*Q* Band for `GUCGAGCAAUAUUACGCGAA` ?
*A* Mid

*Q* Bin this entry: `CAUUAGCAAUAUUACGCUAC`
*A* Low

Ref: the supplement of paper PMC7877785
